In this section we review reported MIC (μg/mL) Streptococcus pneumoniae A28272 values for a set of molecules.
System: Streptococcus pneumoniae A28272
measurement description: MIC, broth micro dilution assay (NCCLS)
Assay type: cell-based
condition summary: 50% Mueller-Hinton medium and 50% Todd Hewitt medium, 35° C., 18 hours
Please state the figure in µg/mL; there is no need to write the unit.

molecule	numeric readout
C=C(NC(=O)c1csc(-c2nc3c(cc2O)-c2nc(cs2)C(=O)NC(C(C)O)C(=O)NC(=C(C)OC)c2nc(cs2)C(=O)NC2c4nc(cs4)C(=O)NC(COC(=O)c4c5c6c(cccc6n4OP(=O)(O)OCCCl)COC(=O)C(OC4CC(C)(O)C(N(C)C)C(C)O4)C2OC5)c2nc-3cs2)n1)C(N)=O (centres unmarked) [Example 65]	0.03

Switching to the query record.
### Prompt # lookup: MIC (μg/mL) Streptococcus pneumoniae A28272 of C=C(NC(=O)c1csc(-c2nc3c(cc2OCC(=O)N(C)C)-c2nc(cs2)C(=O)NC(C(C)O)C(=O)NC(=C(C)OC)c2nc(cs2)C(=O)NC2c4nc(cs4)C(=O)NC(COC(=O)c4c5c6c(cccc6n4OCC(=O)N(C)C)COC(=O)C(OC4CC(C)(O)C(N(C)C)C(C)O4)C2OC5)c2nc-3cs2)n1)C(N)=O (centres unmarked) [Example 71]
### Response 0.125
